Each recorded value in this set is attributed to PubChem BioAssay (NCATS).

- Test system: Hek293T
- measurement protocol: Primary qHTS to identify gynecologic anti-cancer compounds using libraries of approved drugs and bioactive compounds (AID 1345084); note: % is set by controls: 0 for no effect and ±100 for the full control effect; nearly all actives have a fitted effect of over 55% in size
- condition: Gynecologic cancer cell panel viability, ATPlite luminescence, 48 h, control line for the selectivity index; series mostly up to 57.5 µM
Inconclusive results are not listed. Activity calls are given as the source filed them. Calls come from the whole dose curve; as a rule, active = well fitted cell-killing curve with a large enough effect; inconclusive = small, poorly fitted or top-dose-only effect, or effect the other way; inactive = flat fitted curve, though single readings scatter.
experimental endpoint: activity change, negative = cytotoxicity

# example entries with known answers
C=C(C)[C@@H]1CC[C@]2(C)CC[C@]3(C)C(CCC4[C@@]5(C)CC[C@H](O)C(C)(C)C5CC[C@]43C)C12 (stereo not given in full)
inactive
C/C(=C\C(=O)C[C@@]12C(=O)O[C@]3(C)CC[C@H]1C[C@H]23)C(N)=O
inactive
C=C1C[C@@]2(O)O[C@@]3(C[C@H]2C(C)C)[C@@H](C)CC[C@@H]13
inactive
COc1cc(C)c(C(=O)NC2C(C)OC(OC3CCC(C)C4C3C=C(C)C3/C(C)=C\CC/C(C)=C/C5(C)C=C(C(=O)O)C(C)CC56OC(=O)/C(=C(\O)C34C)C6=O)C(O)C2(C)O)c(O)c1 (stereo not given)
9.94% [at 11.6 µM] (inactive)
COc1ccc(C2(O)c3ccccc3NC(=O)C2OC)cc1 (stereo not given)
inactive

stdin: Any idea what activity change, negative = cytotoxicity was measured for CC1(C)CC[C@]2(C(=O)OC3OC(CO)C(O)C(O)C3O)CC[C@]3(C)C(=CCC4[C@@]5(C)C[C@@H](O)[C@H](OC6OC(C(=O)O)C(O)C(O)C6O)C(C)(C)C5CC[C@]43C)[C@@H]2C1 (stereo not given in full) ?
stdout: -2.17% [at 11.6 µM] (inactive)

stdin: Which activity change, negative = cytotoxicity reading was recorded for the compound CC1(C)CC[C@]2(C(=O)O[C@@H]3O[C@H](CO)[C@@H](O)[C@H](O)[C@H]3O)CC[C@]3(C)C(=CCC4[C@@]5(C)C[C@H](O)[C@H](O[C@@H]6O[C@H](C(=O)O)[C@@H](O)[C@H](O)[C@H]6O)[C@@](C)(CO)C5CC[C@]43C)C2C1 (stereo not given in full) ?
stdout: -0.0375% [at 6.55 µM] (inactive)

stdin: Which activity change, negative = cytotoxicity value belongs to COc1cc([C@H]2OC[C@](O)(Cc3ccc(O[C@@H]4O[C@H](CO)[C@@H](O)[C@H](O)[C@H]4O)c(OC)c3)[C@@H]2CO)ccc1O ?
stdout: inactive

stdin: # lookup: activity change, negative = cytotoxicity of COc1ccccc1CN[C@H]1CCCN[C@H]1c1ccccc1
stdout: inactive

stdin: // returns reported activity change, negative = cytotoxicity for input O=C(/C=C/c1ccc(O)cc1)OC[C@@]1(O)C=C[C@@H]2C(C(=O)O)=CO[C@@H](O[C@@H]3O[C@H](CO)[C@@H](O)[C@H](O)[C@H]3O)[C@@H]21
stdout: inactive

stdin: Give its activity change, negative = cytotoxicity value. Item: COc1ccnc2[nH]cc(C(=O)C(=O)N3CCN(C(=O)c4ccccc4)CC3C)c12 (stereo not given)
stdout: inactive

stdin: Fill blank: measured activity change, negative = cytotoxicity of the compound CC(O)C/C=C/C=C/C(=O)OC1C=C2COC(=O)C2(O)C2(C)CCCC(C)(C)C12 (stereo not given) is ____.
stdout: inactive

stdin: Query (compound): COc1ccc(OC)c(C2C(C#N)=C(N)Oc3n[nH]c(-c4ccc5ccccc5c4)c32)c1 (stereo not given) ; field requested: activity change, negative = cytotoxicity
stdout: inactive

stdin: Fill in the blank: the reported activity change, negative = cytotoxicity of CCOc1nc2c(N)ncnc2n1CC is ____.
stdout: inactive

stdin: Returns the measured activity change, negative = cytotoxicity for the input compound. Input: CC(C)=CCC/C(C)=C/CO[C@@H]1O[C@H](CO[C@@H]2OC[C@](O)(CO)[C@H]2O)[C@@H](O)[C@H](O)[C@H]1O
stdout: inactive
